src = patent US11597727B2

Target: integrin α2β1 (Homo sapiens, UniProt P05556+P17301)
Sequence (P17301 30-1181): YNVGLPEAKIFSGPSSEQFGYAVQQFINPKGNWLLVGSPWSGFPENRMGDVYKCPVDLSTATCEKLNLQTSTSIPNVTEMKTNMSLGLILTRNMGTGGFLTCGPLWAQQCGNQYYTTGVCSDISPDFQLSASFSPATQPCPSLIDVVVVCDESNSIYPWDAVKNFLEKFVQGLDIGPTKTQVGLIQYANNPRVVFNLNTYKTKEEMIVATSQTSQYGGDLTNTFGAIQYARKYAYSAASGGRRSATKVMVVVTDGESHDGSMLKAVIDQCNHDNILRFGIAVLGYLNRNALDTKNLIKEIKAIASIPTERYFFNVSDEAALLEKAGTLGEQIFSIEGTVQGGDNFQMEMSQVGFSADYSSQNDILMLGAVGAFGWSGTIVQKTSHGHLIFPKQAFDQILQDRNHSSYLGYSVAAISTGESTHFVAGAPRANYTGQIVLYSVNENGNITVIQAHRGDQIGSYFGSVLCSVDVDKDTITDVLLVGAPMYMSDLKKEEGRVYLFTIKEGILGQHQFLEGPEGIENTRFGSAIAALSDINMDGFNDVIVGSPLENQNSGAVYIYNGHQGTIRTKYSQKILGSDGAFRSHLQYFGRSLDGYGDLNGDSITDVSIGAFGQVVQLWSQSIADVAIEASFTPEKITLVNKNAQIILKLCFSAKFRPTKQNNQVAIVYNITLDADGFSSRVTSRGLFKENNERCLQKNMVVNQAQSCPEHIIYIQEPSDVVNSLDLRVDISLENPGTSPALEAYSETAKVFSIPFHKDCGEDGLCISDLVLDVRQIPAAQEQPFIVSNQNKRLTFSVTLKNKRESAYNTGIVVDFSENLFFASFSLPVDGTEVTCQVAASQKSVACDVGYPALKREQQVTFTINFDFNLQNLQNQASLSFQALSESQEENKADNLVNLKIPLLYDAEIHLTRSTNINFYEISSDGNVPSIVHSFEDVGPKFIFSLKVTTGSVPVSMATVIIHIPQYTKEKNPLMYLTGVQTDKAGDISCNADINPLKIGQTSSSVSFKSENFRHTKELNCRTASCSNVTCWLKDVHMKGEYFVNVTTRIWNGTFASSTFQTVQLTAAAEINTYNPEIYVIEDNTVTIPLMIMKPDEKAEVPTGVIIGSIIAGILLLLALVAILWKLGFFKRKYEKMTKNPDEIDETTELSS
Sequence (P05556 21-798): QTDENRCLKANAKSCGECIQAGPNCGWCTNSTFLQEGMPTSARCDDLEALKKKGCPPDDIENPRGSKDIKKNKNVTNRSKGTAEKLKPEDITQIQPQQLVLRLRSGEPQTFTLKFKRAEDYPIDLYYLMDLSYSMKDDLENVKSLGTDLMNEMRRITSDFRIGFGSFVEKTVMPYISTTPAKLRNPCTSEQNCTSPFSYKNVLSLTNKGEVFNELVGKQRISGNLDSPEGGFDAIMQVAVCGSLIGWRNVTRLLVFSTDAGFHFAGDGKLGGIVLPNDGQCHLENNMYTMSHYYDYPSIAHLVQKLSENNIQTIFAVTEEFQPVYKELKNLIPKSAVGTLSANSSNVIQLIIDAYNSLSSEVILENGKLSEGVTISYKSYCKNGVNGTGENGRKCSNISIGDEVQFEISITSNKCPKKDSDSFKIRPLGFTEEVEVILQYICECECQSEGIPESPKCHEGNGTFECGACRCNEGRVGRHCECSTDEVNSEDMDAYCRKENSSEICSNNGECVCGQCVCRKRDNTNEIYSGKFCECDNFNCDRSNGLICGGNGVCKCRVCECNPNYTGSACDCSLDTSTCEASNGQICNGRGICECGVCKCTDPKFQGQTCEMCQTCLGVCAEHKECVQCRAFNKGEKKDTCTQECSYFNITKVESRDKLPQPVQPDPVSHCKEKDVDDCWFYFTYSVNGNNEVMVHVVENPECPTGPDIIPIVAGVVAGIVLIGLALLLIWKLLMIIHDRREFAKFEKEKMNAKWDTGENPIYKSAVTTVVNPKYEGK
Test: HT 1080 cell adhesion assay on rat tail collagen I
Settings: HT1080 (human fibrosarcoma) cells on rat tail collagen I, absorbance at 595 nm, triplicate; read-out: IC50s from HT 1080 Cell adhesion assay
Procedure: Cell adhesion Assay: Ninety-six-well flat-bottomed tissue culture plates were coated with rat tail collagen I for 1 hour at 37° C. After incubation, wells were blocked with 1% BSA at 37° C. for 1 hour. Control wells were filled with 1% BSA. […] The relative number of cells in each well was evaluated after solubilization in 40 μl of 2% Triton X-100 by measuring absorbance at 595 nm in a microplate reader. […]
pIC50: −log10 of the molar value.
Observation type: pIC50

Worked cases, pIC50 given:
Record summary for CCC(CC)C(=O)N[C@@H](CNC(=O)NCc1ccccc1)C(=O)O : reported pIC50 = < 4.00

Sure, the documented pIC50 for COc1cccc(CNC(=O)NC[C@H](NC(=O)c2c(Cl)cccc2Cl)C(=O)O)c1 is 4.00 to 5.00

---
Note to self: pIC50 recorded for O=C(NCc1ccco1)NC[C@H](NC(=O)c1c(Cl)cccc1Cl)C(=O)O was < 4.00

The recorded pIC50 for O=C(NCc1ccccc1)NC[C@H](NC(=O)c1c(Cl)cncc1Cl)C(=O)O is > 5.00

Please fill in: pIC50 reported for CC1(C)C2CCC1(C)C(NC(=O)NC[C@H](NC(=O)c1c(Cl)cccc1Cl)C(=O)O)C2 (stereo partly drawn) = > 5.00

Reported pIC50 ( CC(C)(C)OC(=O)NC[C@H](NC(=O)c1c(Cl)cccc1Cl)C(=O)O ) = 4.00 to 5.00

###

biological target: integrin α2β1 (Homo sapiens, UniProt P05556+P17301); experiment: HT 1080 cell adhesion assay on rat tail collagen I; details: HT1080 (human fibrosarcoma) cells on rat tail collagen I, absorbance at 595 nm, triplicate; read-out: IC50s from HT 1080 Cell adhesion assay
pIC50: −log10 of the molar value.
Observation type: pIC50

Observe how each entry below is paired with its result.
Reported pIC50 ( O=C(NCCC12CC3CC(CC(C3)C1)C2)NC[C@H](NC(=O)c1c(Cl)cccc1Cl)C(=O)O ) = 4.00 to 5.00

Query O=C(NC[C@H](NC(=O)c1c(Cl)cccc1Cl)C(=O)O)NC1CC2CCC1C2 (stereo partly shown) yields pIC50 of > 5.00

Lookup result for CN(C)C(=O)NC[C@H](NC(=O)c1c(Cl)cccc1Cl)C(=O)O ; measured pIC50: < 4.00

Read the next record carefully.
GET /value?item= Nc1ccc(CNC(=O)NC[C@H](NC(=O)c2c(Cl)cccc2Cl)C(=O)O)cc1 &field=pIC50 returns < 4.00

###

molecular target: integrin α2β1 (Homo sapiens, UniProt P05556+P17301); assay: HT 1080 cell adhesion assay on rat tail collagen I; settings: HT1080 (human fibrosarcoma) cells on rat tail collagen I, absorbance at 595 nm, triplicate; read-out: IC50s from HT 1080 Cell adhesion assay
Observation type: IC50

Illustrative cases are given below, each with its answer.
// IC50 lookup, molecule = COc1cccc(OC)c1C(=O)N[C@@H](CNC(=O)NCc1ccccc1)C(=O)O , result: > 100 µM

The molecule listed as O=C(NCC1CC2(CCC2)C1)NC[C@H](NC(=O)c1c(Cl)cccc1Cl)C(=O)O has a reported IC50 of 10 to 100 µM

Now take the following molecule into account.
Please fill in: IC50 reported for O=C(NCC1CC2CCC1C2)NC[C@H](NC(=O)c1c(Cl)cccc1Cl)C(=O)O (stereo partly drawn) = 10 to 100 µM
